Assay read-out pIC50 on DYRK2 (Homo sapiens); records merged from the literature.
Sequence (Q92630 whole entry): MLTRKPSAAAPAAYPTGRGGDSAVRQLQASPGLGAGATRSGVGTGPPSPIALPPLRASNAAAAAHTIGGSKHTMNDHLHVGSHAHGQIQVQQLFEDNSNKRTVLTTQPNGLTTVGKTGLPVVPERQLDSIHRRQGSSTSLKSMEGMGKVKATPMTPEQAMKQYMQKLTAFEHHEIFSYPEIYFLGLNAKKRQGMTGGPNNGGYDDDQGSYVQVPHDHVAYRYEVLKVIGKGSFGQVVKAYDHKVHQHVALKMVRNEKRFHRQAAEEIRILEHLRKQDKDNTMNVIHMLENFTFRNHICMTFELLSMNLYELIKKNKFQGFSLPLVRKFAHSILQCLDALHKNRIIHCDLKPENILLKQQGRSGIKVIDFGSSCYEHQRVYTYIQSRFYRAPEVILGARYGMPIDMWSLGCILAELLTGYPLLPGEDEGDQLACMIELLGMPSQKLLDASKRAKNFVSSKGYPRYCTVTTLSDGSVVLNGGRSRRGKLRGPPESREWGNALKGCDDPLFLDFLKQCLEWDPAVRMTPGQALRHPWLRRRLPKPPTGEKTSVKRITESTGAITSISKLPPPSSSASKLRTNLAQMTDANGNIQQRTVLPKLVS
pIC50: −log10 of the molar value.
Quantity: pIC50

In [3]: df
Out[3]:
                                    molecule    data_value
 0   CC#C[C@H]1CNC(=O)N1c1nc2c3c(ccc2s1)OCO3        ≤ 6.00
 1  CC(C)(O)C#CC1CNC(=O)N1c1nc2c3c(ccc2s1)OCC3 (racemic)        ≤ 6.00
 2  C#CC1CNC(=O)N1c1nc2c3c(ccc2s1)OCC3 (single isomer, unassigned)  6.00 to 7.00
 3  CC#C[C@@H]1[C@H](C)NC(=O)N1c1nc2c3c(ccc2s1)OCC3  6.00 to 7.00
 4  CC#C[C@@H]1[C@H](CO)NC(=O)N1c1nc2c3c(ccc2s1)OCC3 (relative stereo)  6.00 to 7.00
 5  CN(C)CCC1CCN(CCS(=O)(=O)c2ccc(-c3cnc(N)c(C(=O)Nc4ccccc4)n3)cc2)CC1          7.14
 6         COc1ccc2nc3ccc(Cl)cc3c(SCCCN)c2c1        > 5.00
 7  CC#C[C@H]1[C@H](CF)NC(=O)N1c1nc2c3c(ccc2s1)OCC3 (single isomer, unassigned)        ≤ 6.00
 8  CC#CC1CNC(=O)N1c1nc2c3c(ccc2s1)OCCN3 (racemic)  6.00 to 7.00
 9                 NCCCSc1c2ccccc2nc2ccccc12        > 5.00
10           COc1cc2nc3ccccc3c(SCCCN)c2cc1OC        < 5.00
11  CC#C[C@@H]1[C@H](C(C)C)NC(=O)N1c1nc2c3c(ccc2s1)OCC3        ≤ 6.00
12  CC#CC1CNC(=O)N1c1nc2c(ccc3nc[nH]c32)s1 (racemic)  6.00 to 7.00
13  CC#CC1CNC(=O)N1c1nc2c3c(ccc2s1)OCCN3C(C)=O (racemic)        ≤ 6.00
14  [2H]C1([2H])Oc2ccc3sc(N4C(=O)NC[C@H]4C#CC)nc3c2O1  6.00 to 7.00
15         COc1ccc2nc3ccc(OC)cc3c(CCCCN)c2c1        > 6.30
16  CC#CC1N(c2nc3c4c(ccc3s2)OCC4)C(=O)NC1(C)C (racemic)        ≤ 6.00
17  CC#C[C@@H]1[C@H](COC)NC(=O)N1c1nc2c3c(ccc2s1)OCC3 (single isomer, unassigned)        ≤ 6.00
18  CC#C[C@H]1[C@H]([C@@H](C)O)NC(=O)N1c1nc2c3c(ccc2s1)OCC3        ≤ 6.00
19  CC#C[C@@H]1[C@H](C)NC(=O)N1c1nc2c3c(ccc2s1)OCCC3  6.00 to 7.00
20  CC#C[C@H]1[C@H](CC)NC(=O)N1c1nc2c3c(ccc2s1)OCC3 (single isomer, unassigned)        ≤ 6.00
21  CC#C[C@@H]1[C@H](CO)NC(=O)N1c1nc2c3c(ccc2s1)OCCO3 (relative stereo)  6.00 to 7.00
22  CC#C[C@H]1[C@H](COC)NC(=O)N1c1nc2c3c(ccc2s1)OCC3 (single isomer, unassigned)        ≤ 6.00
23  CC#CC1CNC(=O)N1c1nc2c(ccc3nnn(C)c32)s1 (racemic)        ≤ 6.00
24     COc1cc(OC)c2nc3ccccc3c(NCCCN(C)C)c2c1        < 5.00
25         COc1ccc2nc3ccc(OC)cc3c(OCCCN)c2c1        < 4.70
26  CC#CC1CNC(=O)N1c1nc2c(ccc3ncccc32)s1 (single isomer, unassigned)  6.00 to 7.00
27  CC#CC1CNC(=O)N1c1nc2c3c(ccc2s1)OCC3 (racemic)  6.00 to 7.00
28   Cn1cc(-c2ccc3occ(-c4ccc(CO)cc4)c3n2)cn1        > 5.30
29  CC#C[C@H]1[C@H](CO)NC(=O)N1c1nc2c3c(ccc2s1)OCCO3 (single isomer, unassigned)  6.00 to 7.00
30  CC#CC1CNC(=O)N1c1nc2c3c(ccc2s1)OCCO3 (racemic)  6.00 to 7.00
31  Cn1cc(-c2ccc3occ(-c4ccc5cn[nH]c5c4)c3n2)cn1        > 6.00
32  COCC#CC1CNC(=O)N1c1nc2c3c(ccc2s1)OCC3 (racemic)        ≤ 6.00
33  CC#C[C@@H]1[C@@H](C)NC(=O)N1c1nc2c3c(ccc2s1)OCC3        ≤ 6.00
